systemTested: recombinant HLA-DRA*01:01/DRB1*01:01 molecules (Homo sapiens, UniProt P01903+P01911, A100R/D57E/F55L/F60I/F76Y/I96L/L162R/M171V/P40L/Q125E/R42F/V115G/Y59C)
method: biochemical
Type: binding
conditionParameters: read-out: HLA-DRB1*01:01 Measured
Where a SMILES comes first, the peptide text is derived from it.
quantityName: Kd

>  <compound>
CC[C@H](C)[C@H](N)C(=O)N[C@H](C(=O)N[C@@H](CC(C)C)C(=O)N[C@@H](CCCCN)C(=O)N[C@@H](C)C(=O)N[C@@H](CC(N)=O)C(=O)N[C@@H](Cc1ccccc1)C(=O)N[C@@H](CO)C(=O)N[C@H](C(=O)O)C(C)C)[C@@H](C)CC [NS1(128–136)] (H-IILKANFSV-OH)

>  <Kd>
> 5 µM

$$$$

Give the measured Kd of CSCC[C@H](NC(=O)[C@@H](N)CC(N)=O)C(=O)N[C@@H](CC(C)C)C(=O)N[C@@H](CO)C(=O)N[C@H](C(=O)N[C@H](C(=O)N[C@@H](CC(C)C)C(=O)NCC(=O)N[C@H](C(=O)O)C(C)C)C(C)C)[C@@H](C)O [PB1(413–421)] (H-NMLSTVLGV-OH) . > 5 µM

* * *

systemTested: HLA-A*02:01 (Homo sapiens, UniProt P04439, D140Y/D185E/D98H/E176V/E277Q/G131W/G231S/I119V/I121R/I166T/I218V/L300P/L318F/N151K/N90K/P208A/P217A/Q86G/Q94H/R138H/R169H/T345S)
method: biochemical
Format: binding
conditionParameters: […]; peptide concentration at half-saturation as approximation of KD; read-out: HLA-A*02:01 Measured
Where a SMILES comes first, the peptide text is derived from it.
Kd listing for selected molecules.
Answer shape: numeric part, then the unit.

Example results:
>  <molecule>
CSCC[C@H](NC(=O)[C@H](CO)NC(=O)[C@H](CCC(=O)O)NC(=O)[C@H](CCSC)NC(=O)[C@@H](NC(=O)[C@H](CC(=O)O)NC(=O)[C@H](CCCCN)NC(=O)[C@H](CC(C)C)NC(=O)[C@@H](N)Cc1ccccc1)C(C)C)C(=O)O [PB1(166–174)] (H-FLKDVMESM-OH)

>  <reported>
51 nM

$$$$
>  <molecule>
CSCC[C@H](NC(=O)[C@@H](N)Cc1ccccc1)C(=O)N[C@@H](CCC(N)=O)C(=O)N[C@@H](C)C(=O)N[C@@H](CC(C)C)C(=O)N[C@@H](Cc1c[nH]cn1)C(=O)N[C@@H](CC(C)C)C(=O)N[C@@H](CC(C)C)C(=O)N[C@@H](CC(C)C)C(=O)O [NS2(99–107)] (H-FMQALHLLL-OH)

>  <reported>
13 nM

$$$$

Give the measured Kd of CC[C@H](C)[C@H](NC(=O)CNC(=O)[C@@H](NC(=O)[C@H](CC(C)C)NC(=O)[C@@H](N)CO)C(C)C)C(=O)N[C@@H](CC(=O)O)C(=O)N1CCC[C@H]1C(=O)N[C@@H](Cc1ccccc1)C(=O)N[C@@H](CCCNC(=N)N)C(=O)N[C@@H](CC(C)C)C(=O)O [NP(297–306)] (H-SLVGIDPFRL-OH) . 70 nM
